# Test system: MCF10A
# protocolDescription: one-nucleolus phenotype percent effect (relative to siNT 0% and siNOL11 100%); higher = more cells with one nucleolus (ribosome biogenesis inhibition)
# experimentalSetup: 20 nM; 72 h
recordedEndpoint: one-nucleolus phenotype percent effect (%)
Write it as a number; the unit % goes unstated.

Past entries and their recorded results:
CAAAGUGAUGAGUAAUACUGGCUG [hsa-miR-3609] ... -12.6
AAGCCCUUACCCCAAAAAGUAU [hsa-miR-129-1-3p] ... 23.6
UGUUUGUUGUAAGGAUCGUUGU [hsa-miR-8068] ... 7.78
AAUCGGACCCAUUUAAACCGGAG [hsa-miR-5188] ... -9.59
CUCCUACAUAUUAGCAUUAACA [hsa-miR-155-3p] ... -5.11

**Q:** Can you look up one-nucleolus phenotype percent effect on MCF10A for UGUCAGUUUGUCAAAUACCCCA [hsa-miR-223-3p] ?
**A:** -4.68

**Q:** // next record UGCCCUCCUUUCUUCCCUC [hsa-miR-4290]
**A:** -1.5

**Q:** Follow-up item: UCUCUCUCCCACUUCCCUGCAG [hsa-miR-7110-3p]
**A:** -0.286

**Q:** Would you kindly repeat that for UGAGGUAGUAGUUUGUGCUGUU [hsa-let-7i-5p] ?
**A:** -11.8

**Q:** And then ACUUUCCUCACUCCCGUGAAGU [hsa-miR-3124-3p] , what is it?
**A:** -15.5

**Q:** Next up: UUGAAGGGACAAGUCAGAUAUGCC [hsa-miR-6864-5p]
**A:** 17.8

**Q:** Similarly, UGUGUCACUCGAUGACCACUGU [hsa-miR-597] ?
**A:** 13.9

Source listed as the supplement of paper PMC10899765.
